Documented IMS-MS Drift Time of unfolded conformer across a set of compounds
Assay target: FGFR1 (Homo sapiens, UniProt P11362, C488A/C584S)
Construct: made in house; host or cells: E. coli
Sequence (P11362 with tags, fused parts or gaps C488A/C584S): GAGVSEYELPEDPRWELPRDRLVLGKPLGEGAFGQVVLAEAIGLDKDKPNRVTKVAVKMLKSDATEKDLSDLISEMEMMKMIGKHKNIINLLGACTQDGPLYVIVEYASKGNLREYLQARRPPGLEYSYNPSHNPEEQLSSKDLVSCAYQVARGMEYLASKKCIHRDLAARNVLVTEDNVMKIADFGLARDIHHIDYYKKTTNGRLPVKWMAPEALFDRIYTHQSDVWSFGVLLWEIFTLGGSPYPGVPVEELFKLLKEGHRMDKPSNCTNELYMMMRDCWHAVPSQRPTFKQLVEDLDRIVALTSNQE
Measurement notes: ESI-CIU-IMS-MS collision-induced unfolding of FGFR1 after incubation with inhibitor
Measurement context: 24 V Trap, 11+ FGFR1 ions
Please append the unit to your numeric answer.

// known answers, use as guide
CNC(=O)c1cc(Oc2ccc(NC(=O)Nc3ccc(Cl)c(C(F)(F)F)c3)cc2)ccn1
7.5 ms
COc1ccc(C(=O)Nc2cc(-c3ccccc3)[nH]n2)cc1OC
7.5 ms
Cc1cc(Nc2nc(NCCc3cccnc3)ncc2Br)n[nH]1
7.5 ms
Cc1ccc(C(=O)Nc2ccc(CN3CCN(C)CC3)c(C(F)(F)F)c2)cc1C#Cc1cnc2cccnn12
7.7 ms
CC(C)Oc1cc(Nc2ccnc(NCc3cc(C4CC4)no3)n2)n[nH]1
7.7 ms
CCCc1cc(Nc2nc(NCc3ccccn3)ncc2Br)n[nH]1
7.7 ms
CNC(=O)c1ccccc1Nc1cc(Nc2cn(C)nc2C)ncc1C(F)(F)F
7.5 ms
Cc1ccc(F)c(NC(=O)Nc2ccc(-c3cccc4[nH]nc(N)c34)cc2)c1
7.7 ms

IN: Tell me the measured IMS-MS Drift Time of unfolded conformer of `CN1CCN(c2ccc(NC(=O)c3n[nH]c4ccccc34)cc2)CC1` , please.
OUT: 7.5 ms
